# Tested on: Key Broadleaf Weed and Crop Species
# assay.info: Post-emergent Test II herbicidal activity (Table 5)
# Type: in vivo
# assay.conditions: post-emergence, 336 h; ABUTH: velvetleaf (Abutilon theophrasti); 70 g ai/ha; post-emergent; 14 days after application; read-out: Visual Growth Reduction (%) 14 Days After Application ABUTH
Documented pest or weed control at 70 g/ha across a set of compounds
assay.metric: pest or weed control at 70 g/ha

compound="COC(=O)c1nc(-c2cc(F)c(I)cc2F)nc(N)c1OC [Compound 101]" reported_value="85 to 94%"
compound="Nc1cc(-c2ccc(I)c(F)c2)nc(C(=O)O)c1Cl [Compound 77]" reported_value="85 to 94%"
compound="C=Cc1c(N)nc(-c2ccc(F)c(F)c2F)nc1C(=O)OC [Compound 197]" reported_value="95 to 100%"
compound="COC(=O)c1nc(-c2cc(F)c(C#N)cc2F)nc(N)c1OC [Compound 208]" reported_value="0 to 29%"
compound="C#Cc1ccc(-c2cc(N)c(Cl)c(C(=O)OC)n2)cc1 [Compound 126]" reported_value="95 to 100%"
compound="Cc1c(-c2ccc(I)c(F)c2)nc(C(=O)O)c(Cl)c1N [Compound 87]" reported_value="85 to 94%"
compound="COC(=O)c1nc(-c2ccc(I)cc2)c(Cl)c(N)c1Cl [Compound 96]" reported_value="95 to 100%"
compound="C=Cc1c(C(=O)O)nc(-c2ccc(C#N)cc2)c(F)c1N [Compound 150]" reported_value="45 to 59%"
compound="C=Cc1c(N)nc(-c2ccc(F)c(F)c2F)nc1C(=O)O [Compound 191]" reported_value="60 to 74%"
compound="C=Cc1c(C(=O)O)nc(-c2ccc(C(F)(F)F)c(F)c2F)c(F)c1N [Compound 61]" reported_value="85 to 94%"
compound="COC(=O)c1nc(-c2ccc(C#N)cc2F)c(F)c(N)c1Cl [Compound 44]" reported_value="30 to 44%"
compound="C#Cc1ccc(-c2nc(C(=O)O)c(C=C)c(N)c2F)cc1 [Compound 36]" reported_value="0 to 29%"
compound="Nc1cc(-c2ccc(Br)cc2F)nc(C(=O)O)c1Cl [Compound 74]" reported_value="95 to 100%"
compound="Cc1c(-c2ccc(I)cc2)nc(C(=O)O)c(Cl)c1N [Compound 116]" reported_value="95 to 100%"
compound="COC(=O)c1nc(-c2ccc(OC(F)F)cc2)cc(N)c1Cl [Compound 23]" reported_value="95 to 100%"
compound="COC(=O)c1nc(-c2cc(F)c(C(F)(F)F)cc2F)c(F)c(N)c1Cl [Compound 144]" reported_value="85 to 94%"

###

# System: Key Grass and Sedge Weeds as well as Grass Crops
# assay.info: Post-emergent Test II herbicidal activity (Table 6)
# Type: in vivo
# assay.conditions: post-emergence, 336 h, ZEAMX: maize, corn (Zea mays), crop, 70 g ai/ha, read-out: Visual Growth Reduction (%) 14 Days After Application, ZEAMX
Listed compounds paired with reported pest or weed control at 70 g/ha
assay.metric: pest or weed control at 70 g/ha

smiles_structure=COC(=O)c1nc(-c2ccc(C#N)c(F)c2F)c(F)c(N)c1Cl assay_metric="pest or weed control at 70 g/ha" reported_value="0 to 29%"
smiles_structure=Nc1cc(-c2ccc(C(F)(F)F)c(F)c2F)nc(C(=O)O)c1Cl assay_metric="pest or weed control at 70 g/ha" reported_value="95 to 100%"
smiles_structure=COC(=O)c1nc(-c2ccc(C(F)F)cc2)c(F)c(N)c1Cl assay_metric="pest or weed control at 70 g/ha" reported_value="75 to 84%"
smiles_structure=C#Cc1ccc(-c2nc(C(=O)O)c(Cl)c(N)c2F)cc1F assay_metric="pest or weed control at 70 g/ha" reported_value="95 to 100%"
smiles_structure=COC(=O)c1nc(-c2ccc(I)cc2F)c(F)c(N)c1Cl assay_metric="pest or weed control at 70 g/ha" reported_value="0 to 29%"
smiles_structure=COC(=O)c1ccc(-c2nc(C(=O)OC)c(Cl)c(N)c2F)cc1 assay_metric="pest or weed control at 70 g/ha" reported_value="0 to 29%"
smiles_structure=Cc1ccc(-c2nc(C(=O)O)c(Cl)c(N)c2F)c(F)c1F assay_metric="pest or weed control at 70 g/ha" reported_value="0 to 29%"
smiles_structure=COC(=O)c1nc(-c2ccccc2)nc(N)c1OC assay_metric="pest or weed control at 70 g/ha" reported_value="0 to 29%"
smiles_structure=COC(=O)c1nc(-c2ccc(Br)c(F)c2F)c(F)c(N)c1Cl assay_metric="pest or weed control at 70 g/ha" reported_value="85 to 94%"
smiles_structure=COC(=O)c1nc(-c2ccc(OC(F)F)cc2F)c(F)c(N)c1Cl assay_metric="pest or weed control at 70 g/ha" reported_value="45 to 59%"
smiles_structure=Nc1c(F)c(-c2ccc(I)cc2)nc(C(=O)O)c1Cl assay_metric="pest or weed control at 70 g/ha" reported_value="85 to 94%"
smiles_structure=C=Cc1c(C(=O)O)nc(-c2ccc(Cl)c(F)c2)c(F)c1N assay_metric="pest or weed control at 70 g/ha" reported_value="85 to 94%"
smiles_structure=COC(=O)c1nc(-c2ccc(C(F)(F)F)c(F)c2)c(F)c(N)c1Cl assay_metric="pest or weed control at 70 g/ha" reported_value="75 to 84%"
smiles_structure=Cc1ccc(-c2nc(C(=O)O)c(Cl)c(N)c2F)cc1F assay_metric="pest or weed control at 70 g/ha" reported_value="75 to 84%"
smiles_structure=COC(=O)c1nc(-c2ccc(OC(F)F)c(F)c2F)c(F)c(N)c1Cl assay_metric="pest or weed control at 70 g/ha" reported_value="0 to 29%"
smiles_structure=Nc1c(F)c(-c2ccc(C(F)(F)F)c(F)c2)nc(C(=O)O)c1Cl assay_metric="pest or weed control at 70 g/ha" reported_value="45 to 59%"
smiles_structure=COc1c(N)nc(-c2ccc(I)cc2)nc1C(=O)O assay_metric="pest or weed control at 70 g/ha" reported_value="45 to 59%"
smiles_structure=COC(=O)c1nc(-c2ccccc2)c(F)c(N)c1Cl assay_metric="pest or weed control at 70 g/ha" reported_value="0 to 29%"
smiles_structure=COC(=O)c1nc(-c2ccc(C(F)(F)F)c(F)c2F)c(F)c(N)c1Cl assay_metric="pest or weed control at 70 g/ha" reported_value="75 to 84%"

Hey, just so you know, these numbers are from patent US9113629B2.
